- study_system: T1, THAP1 THAP domain N12K (human, UniProt Q9NVV9 1-81, N12K)
- T1 sequence: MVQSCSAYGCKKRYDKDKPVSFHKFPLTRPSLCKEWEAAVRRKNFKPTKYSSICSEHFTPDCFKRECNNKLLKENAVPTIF
- test_method_notes: ITC
endpoint_label: pKd
Entry type: numeric. Quantity: pKd, the -log10 of concentration in molar units.

Request: Give a short answer stating reported pKd for 14-bp non-specific DNA (ns) (dsDNA) DNA 1: GATTTGCATTTTAA DNA 2: TTAAAATGCAAATC .
Response: 5.76
